Target protein (sequence): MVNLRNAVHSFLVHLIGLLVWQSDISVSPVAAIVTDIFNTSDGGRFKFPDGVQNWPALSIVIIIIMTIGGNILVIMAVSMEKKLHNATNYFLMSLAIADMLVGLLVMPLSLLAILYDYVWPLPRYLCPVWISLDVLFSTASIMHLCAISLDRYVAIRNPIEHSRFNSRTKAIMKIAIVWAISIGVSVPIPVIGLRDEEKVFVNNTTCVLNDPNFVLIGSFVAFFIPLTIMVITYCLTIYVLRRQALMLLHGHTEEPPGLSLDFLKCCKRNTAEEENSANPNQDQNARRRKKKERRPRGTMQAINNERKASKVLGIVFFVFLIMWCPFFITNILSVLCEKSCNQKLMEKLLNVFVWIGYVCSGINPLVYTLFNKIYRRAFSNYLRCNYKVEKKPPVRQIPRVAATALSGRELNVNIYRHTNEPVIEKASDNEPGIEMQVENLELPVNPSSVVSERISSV
# note: boundary value 80 nM maps to Condition not met; IC50 below it maps to Condition met

Enquiry: Is it true that IC50 reported for CCC(C)(CC)NC1=NCCNC(c2ccc(F)cc2)=C1 is less than 80 nM?
Return: Condition met

Enquiry: Is it true that IC50 reported for CC(C)(C)NC1=NCCNC(c2ccc(F)cc2)=C1 is less than 80 nM?
Return: Condition not met

Enquiry: Is it true that IC50 reported for CC(C)(C)NC1=NCCNC(c2ccccc2)=C1 is less than 80 nM?
Return: Condition not met

Enquiry: Is it true that IC50 reported for CCC1(NC2=NCCNC(c3ccc(F)cc3F)=C2)CCCC1 is less than 80 nM?
Return: Condition met

Enquiry: Is it true that IC50 reported for CCC(C)(CC)NC1=NCCNC(c2ccc(C)cc2)=C1 is less than 80 nM?
Return: Condition met

----------
Molecular target: 5-hydroxytryptamine receptor 2A (Homo sapiens, UniProt P28223)
Sequence (P28223 whole entry): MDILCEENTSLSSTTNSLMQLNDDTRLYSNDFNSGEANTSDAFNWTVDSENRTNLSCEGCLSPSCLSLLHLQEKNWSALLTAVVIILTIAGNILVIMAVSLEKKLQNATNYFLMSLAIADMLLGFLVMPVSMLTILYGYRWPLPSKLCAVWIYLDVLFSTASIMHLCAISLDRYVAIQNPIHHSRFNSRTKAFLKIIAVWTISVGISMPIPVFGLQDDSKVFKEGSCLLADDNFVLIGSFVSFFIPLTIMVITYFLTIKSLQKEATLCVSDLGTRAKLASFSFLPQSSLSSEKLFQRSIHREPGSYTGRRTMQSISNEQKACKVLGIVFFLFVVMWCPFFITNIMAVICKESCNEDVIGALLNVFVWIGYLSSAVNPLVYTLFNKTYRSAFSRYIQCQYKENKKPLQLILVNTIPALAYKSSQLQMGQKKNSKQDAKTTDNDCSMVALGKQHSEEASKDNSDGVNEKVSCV
Experiment: Displacement of [3H]ketanserin from human 5HT2A receptor expressed in CHOK1 cells
log10 IC50 reference
Short version: log10 scale, IC50, nM.

In the examples that follow, each entry is paired with its recorded log10 IC50.
compoundString	log10 IC50
CCC(C)(CC)NC1=NCCNC(c2ccccc2F)=C1	0.65
Cc1ccc(C2=CC(NC(C)(C)C)=NCCN2)c(C)c1	1.85
CCC1(NC2=NCCNC(c3ccccc3F)=C2)CCCC1	0.56
COc1ccc(C2=CC(NC(C)(C)C)=NCCN2)cc1	2.73
CC(C)(NC1=NCCNC(c2ccc(F)cc2F)=C1)C1CCC1	0.15
CC(C)(Cc1ccccc1)NC1=NCCNC(c2ccccc2F)=C1	0.58
CCC1(NC2=NCCNC(c3ccc(F)cc3F)=C2)CCCC1	0.04
CCC(C)(CC)NC1=NCCNC(c2ccc(C)cc2)=C1	1.17

Enquiry: Provide measured log10 IC50 value, entry: CC(C)(C)NC1=NCCNC(c2ccc(C#N)cc2)=C1
Return: 3.45

Enquiry: Provide measured log10 IC50 value, entry: CC(C)(C)NC1=NCCNC(c2ccc(F)cc2)=C1
Return: 1.32

----------
Biological target: UniProt:P28223
Test: Displacement of [3H]ketanserin from human 5HT2A receptor expressed in CHOK1 cells
pIC50 reference
Scale for pIC50: -log10 of concentration given in mol/L; no unit attached.

In the examples that follow, each entry is paired with its recorded pIC50.
compoundString	pIC50
CC(C)(C)NC1=NCCNC(c2cccc(C(F)(F)F)c2)=C1	6.29
CCC(C)(CC)NC1=NCCNC(c2ccc(F)cc2)=C1	8.82
Cc1ccc(C2=CC(NC(C)(C)C)=NCCN2)c(F)c1	7.85
CC1(NC2=NCCNC(c3ccc(F)cc3)=C2)CCCCC1	8.80
CC(C)(C)NC1=NCCNC(c2ccccc2F)=C1	7.74

Enquiry: Provide measured pIC50 value, entry: Cc1ccc(C2=CC(NC(C)(C)Cc3ccccc3)=NCCN2)cc1
Return: 8.62

Enquiry: Provide measured pIC50 value, entry: Cc1ccc(C2=CC(NC(C)(C)C)=NCCN2)cc1
Return: 7.96

Enquiry: Provide measured pIC50 value, entry: Cc1ccccc1C1=CC(NC(C)(C)C)=NCCN1
Return: 6.95

Enquiry: Provide measured pIC50 value, entry: CC(C)(C)NC1=NCCNC(c2ccccc2)=C1
Return: 7.46

Enquiry: Provide measured pIC50 value, entry: CCC1(NC2=NCCNC(c3ccc(F)cc3)=C2)CCCC1
Return: 9.10
